Target: human serum albumin (hSA) (Homo sapiens, UniProt P02768)
Construct: purchased Albumin Bioscience (Huntsville, AL, USA)
Sequence (P02768 25-609): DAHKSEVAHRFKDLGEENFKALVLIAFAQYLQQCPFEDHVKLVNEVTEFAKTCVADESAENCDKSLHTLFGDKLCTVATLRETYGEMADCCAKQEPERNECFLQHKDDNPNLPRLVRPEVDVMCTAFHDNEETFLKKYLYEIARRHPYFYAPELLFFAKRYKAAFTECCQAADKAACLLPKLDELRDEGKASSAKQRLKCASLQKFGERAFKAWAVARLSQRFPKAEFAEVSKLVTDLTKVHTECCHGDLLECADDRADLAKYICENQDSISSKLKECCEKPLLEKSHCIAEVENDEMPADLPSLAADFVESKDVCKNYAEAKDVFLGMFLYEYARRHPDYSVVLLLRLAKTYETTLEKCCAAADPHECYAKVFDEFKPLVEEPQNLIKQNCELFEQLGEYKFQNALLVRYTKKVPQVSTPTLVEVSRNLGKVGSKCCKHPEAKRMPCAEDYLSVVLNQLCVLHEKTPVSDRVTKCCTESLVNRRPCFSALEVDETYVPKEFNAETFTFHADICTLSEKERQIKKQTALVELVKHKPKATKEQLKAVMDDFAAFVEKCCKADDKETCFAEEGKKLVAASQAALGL
Test: Isothermal titration calorimetry (ITC) of PFAS binding to defatted hSA
Conditions: KD2, 310 K, sequential binding, second binding event
pKd: −log10 of the molar value.

[
  {
    "compound": "O=C(O)C(F)(OC(F)(F)C(F)(F)C(F)(F)F)C(F)(F)F (stereo not shown) [HPFO-DA]",
    "pKd": 4.57
  }
]

----------
Molecular target: human serum albumin (hSA) (Homo sapiens)
Construct: purchased Albumin Bioscience (Huntsville, AL, USA)
Assay: Isothermal titration calorimetry (ITC) of PFAS binding to defatted hSA
Conditions: KD, 298 K, one set of sites
pKd: −log10 of the molar value.
pKd values for the compounds below.
readout-kind: pKd

[
  {
    "compound": "O=C(O)C(F)(F)C(F)(F)C(F)(F)C(F)(F)C(F)(F)F",
    "reading": 5.35
  },
  {
    "compound": "O=C(O)C(F)(F)OC1(F)OC(F)(F)OC1(F)OC(F)(F)F (centres unmarked)",
    "reading": 5.62
  }
]

----------
Target: human serum albumin (hSA) (Homo sapiens)
Construct: purchased Albumin Bioscience (Huntsville, AL, USA)
Experiment: Isothermal titration calorimetry (ITC) of PFAS binding to defatted hSA
Conditions: KD1, 298 K, sequential binding, first binding event

[
  {
    "compound": "O=C(O)C(F)(OC(F)(F)C(F)(F)C(F)(F)F)C(F)(F)F (stereo not shown)",
    "target-or-system": "human serum albumin (hSA) (Homo sapiens)",
    "quantity-unit": "µM",
    "Kd": 19
  }
]

----------
Target: human serum albumin (hSA) (Homo sapiens)
Construct: purchased Albumin Bioscience (Huntsville, AL, USA)
Experiment: Isothermal titration calorimetry (ITC) of PFAS binding to defatted hSA
Settings: KD1, 310 K, sequential binding, first binding event
pKd: −log10 of the molar value.

[
  {
    "compound": "O=C(O)C(F)(OC(F)(F)C(F)(F)C(F)(F)F)C(F)(F)F (stereo not shown) [HPFO-DA]",
    "pKd": 5.00
  }
]

----------
Biological target: human serum albumin (hSA) (Homo sapiens, UniProt P02768)
Construct: purchased Albumin Bioscience (Huntsville, AL, USA)
Assay: Isothermal titration calorimetry (ITC) of PFAS binding to defatted hSA
Settings: KD, 310 K, two sets of sites, low-affinity sites
pKd: −log10 of the molar value.

[
  {
    "compound": "O=C(O)C(F)(F)C(F)(F)C(F)(F)C(F)(F)C(F)(F)C(F)(F)C(F)(F)F [PFOA, perfluorooctanoic acid]",
    "pKd": 4.34
  }
]

----------
Molecular target: human serum albumin (hSA) (Homo sapiens, UniProt P02768)
Construct: purchased Albumin Bioscience (Huntsville, AL, USA)
Test: Isothermal titration calorimetry (ITC) of PFAS binding to defatted hSA
Settings: human, pH 7.4, KD, 310 K, two sets of sites, high-affinity sites
Method: ITC experiments were performed using a Microcal PEAQ-ITC instrument (Malvern Panalytical, Malvern, UK). Both dhSA (110 μM) and ligands (HPFO-DA, C6O4, PFHxA, Ibu, and War, 4 mM solutions) were dissolved in 50 mM NaPi, 100 mM NaCl, pH 7.4. […] Data were analyzed using the MicroCal PEAQ-ITC Evaluation software (Malvern Panalytical, Malvern, UK). […] Free energy and the entropy change (ΔS) were calculated from the Gibbs free energy (ΔG) relationships: ΔG = ΔH – TΔS = −RT ln(KA).
pKd: −log10 of the molar value.
readout-kind: pKd

[
  {
    "compound": "O=C(O)C(F)(F)C(F)(F)C(F)(F)C(F)(F)C(F)(F)C(F)(F)C(F)(F)F [PFOA, perfluorooctanoic acid]",
    "reading": 4.41
  }
]
